Reported pKd values for the following binders.
Molecular target: T1, cynoSIRPα (XP_015313155), Extracellular Domain + His-Tag (cynomolgus monkey)
T1 construct: also called CySIRPα XP_015313155; not shown: His-Tag
T1 chain: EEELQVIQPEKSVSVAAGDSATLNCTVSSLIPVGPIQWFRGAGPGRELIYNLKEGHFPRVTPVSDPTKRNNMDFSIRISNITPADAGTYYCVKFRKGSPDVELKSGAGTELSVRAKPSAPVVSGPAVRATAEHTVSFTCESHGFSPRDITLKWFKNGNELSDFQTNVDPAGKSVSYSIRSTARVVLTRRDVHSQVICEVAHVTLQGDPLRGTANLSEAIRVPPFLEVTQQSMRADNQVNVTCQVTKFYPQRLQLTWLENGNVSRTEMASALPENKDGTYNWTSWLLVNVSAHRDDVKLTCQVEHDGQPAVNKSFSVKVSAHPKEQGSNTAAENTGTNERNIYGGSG
Assay: SPR, antibody captured on Protein A/G, ECD-His analyte, 1:1 fit
pKd (log units): -log10 of the concentration in mol/L.

Antibody E6 (antibody, human IgG1, kappa, L234A L235A, V domains shown) VH: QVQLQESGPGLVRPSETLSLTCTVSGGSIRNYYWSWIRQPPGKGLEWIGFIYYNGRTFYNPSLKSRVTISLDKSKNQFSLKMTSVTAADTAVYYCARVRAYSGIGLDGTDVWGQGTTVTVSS VL: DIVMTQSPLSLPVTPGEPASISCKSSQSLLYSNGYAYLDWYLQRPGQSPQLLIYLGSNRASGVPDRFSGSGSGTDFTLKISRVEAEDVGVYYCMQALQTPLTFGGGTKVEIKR : 7.38
Antibody E11 (antibody, human IgG1, kappa, L234A L235A, V domains shown) VH: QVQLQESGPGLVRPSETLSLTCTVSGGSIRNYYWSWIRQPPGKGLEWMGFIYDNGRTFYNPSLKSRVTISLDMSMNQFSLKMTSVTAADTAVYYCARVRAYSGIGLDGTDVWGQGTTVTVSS VL: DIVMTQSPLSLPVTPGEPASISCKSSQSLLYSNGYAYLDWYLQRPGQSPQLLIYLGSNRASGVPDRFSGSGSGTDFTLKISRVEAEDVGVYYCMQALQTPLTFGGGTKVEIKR : 7.70

Now look at this one.
Input: What does the record list as pKd for Antibody E4 (antibody, human IgG1, kappa, L234A L235A, V domains shown) VH: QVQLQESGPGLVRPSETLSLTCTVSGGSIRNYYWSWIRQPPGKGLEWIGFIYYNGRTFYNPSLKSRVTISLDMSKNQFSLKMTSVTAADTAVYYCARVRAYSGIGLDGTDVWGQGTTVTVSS VL: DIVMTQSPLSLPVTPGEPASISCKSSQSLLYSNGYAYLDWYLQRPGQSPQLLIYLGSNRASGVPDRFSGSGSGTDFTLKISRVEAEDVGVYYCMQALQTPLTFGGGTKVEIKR ?
Output: 7.70
